Target: Cin5 (UniProt P40917)
Sequence: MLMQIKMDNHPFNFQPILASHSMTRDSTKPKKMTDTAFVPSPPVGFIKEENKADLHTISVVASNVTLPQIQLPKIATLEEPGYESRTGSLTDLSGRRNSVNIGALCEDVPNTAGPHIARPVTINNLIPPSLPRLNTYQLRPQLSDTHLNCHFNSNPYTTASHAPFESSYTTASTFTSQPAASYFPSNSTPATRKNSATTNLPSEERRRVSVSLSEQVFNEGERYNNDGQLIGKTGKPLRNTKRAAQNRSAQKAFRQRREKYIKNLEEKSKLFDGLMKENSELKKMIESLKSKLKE
Experiment: PBM E-score (8-mer binding enrichment) (E-score (-0.5 to 0.5)); higher = stronger / more preferred TF binding
Conditions: protein concentration: 100 nM; construct: GST-full length
Whole data set: some 33,000 sequences, median “E-score (-0.5 to 0.5)” near -0.0059, cut for the highest 2% near 0.26. The list comes from a sample in which the highest values are over-represented; it also holds close analogues and randomly drawn sequences.
The label depends only on PBM E-score: 1 if it is at least 0.1, 0 if it is smaller.

>  <ordered residues>
CATACATA

>  <class name>
1

$$$$
>  <ordered residues>
CATATTTA

>  <class name>
1

$$$$
>  <ordered residues>
ATATGAAC

>  <class name>
1

$$$$
>  <ordered residues>
CACTTACA

>  <class name>
1

$$$$
>  <ordered residues>
CATAATCC

>  <class name>
1

$$$$
>  <ordered residues>
CGCACGGC

>  <class name>
0

$$$$
>  <ordered residues>
CTAATACC

>  <class name>
1

$$$$
>  <ordered residues>
CATATTAA

>  <class name>
1

$$$$
>  <ordered residues>
AGCTTACT

>  <class name>
1

$$$$
>  <ordered residues>
GCAAAAGC

>  <class name>
0

$$$$
>  <ordered residues>
CCTAATCC

>  <class name>
0

$$$$
>  <ordered residues>
ACCCCTCT

>  <class name>
0

$$$$
>  <ordered residues>
GAGGTGCA

>  <class name>
0

$$$$
>  <ordered residues>
AGGTCCTC

>  <class name>
0

$$$$
>  <ordered residues>
ATAATAAC

>  <class name>
1

$$$$

###

Biological target: Cin5 (UniProt P40917)
Sequence: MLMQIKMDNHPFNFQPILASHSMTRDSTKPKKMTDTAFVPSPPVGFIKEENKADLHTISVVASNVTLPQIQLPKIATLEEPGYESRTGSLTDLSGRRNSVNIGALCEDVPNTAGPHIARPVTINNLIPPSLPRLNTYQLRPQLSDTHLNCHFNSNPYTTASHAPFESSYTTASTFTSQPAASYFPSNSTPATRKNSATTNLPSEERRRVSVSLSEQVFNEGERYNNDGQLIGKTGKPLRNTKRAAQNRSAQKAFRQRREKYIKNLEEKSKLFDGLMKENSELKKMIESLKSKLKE
Assay: PBM E-score (8-mer binding enrichment) (E-score (-0.5 to 0.5)); higher = stronger / more preferred TF binding
Details: protein concentration: 100 nM; construct: GST-full length
The full ranking holds about 33,000 sequences; the median of “E-score (-0.5 to 0.5)” is about -0.0059, and the highest 2% start at about 0.26. What follows is part of a selection rich in the highest values, with near analogues and random picks from the rest.
Consider the following sequences and their measured PBM E-score readings.

>  <ordered residues>
GTATAACA

>  <PBM E-score>
0.126

$$$$
>  <ordered residues>
AGATGGAA

>  <PBM E-score>
0.167

$$$$
>  <ordered residues>
ATGATATG

>  <PBM E-score>
0.289

$$$$
>  <ordered residues>
AATTTCCG

>  <PBM E-score>
0.18

$$$$
>  <ordered residues>
ATCATGAT

>  <PBM E-score>
0.098

$$$$
>  <ordered residues>
TGACATCA

>  <PBM E-score>
0.356

$$$$
>  <ordered residues>
CGACATCA

>  <PBM E-score>
0.137

$$$$
>  <ordered residues>
GTAACGCA

>  <PBM E-score>
0.0946

$$$$
>  <ordered residues>
CCCCCCCA

>  <PBM E-score>
-0.464

$$$$
>  <ordered residues>
TAGATCGA

>  <PBM E-score>
0.0888

$$$$
>  <ordered residues>
ACATGGTG

>  <PBM E-score>
0.0908

$$$$
>  <ordered residues>
CTAATGGC

>  <PBM E-score>
-0.0137

$$$$
>  <ordered residues>
AGGTGAAT

>  <PBM E-score>
0.099

$$$$
>  <ordered residues>
AAATTACC

>  <PBM E-score>
0.123

$$$$

###

Each record here notes measured PBM E-score.
Target: Cin5 (UniProt P40917)
Sequence: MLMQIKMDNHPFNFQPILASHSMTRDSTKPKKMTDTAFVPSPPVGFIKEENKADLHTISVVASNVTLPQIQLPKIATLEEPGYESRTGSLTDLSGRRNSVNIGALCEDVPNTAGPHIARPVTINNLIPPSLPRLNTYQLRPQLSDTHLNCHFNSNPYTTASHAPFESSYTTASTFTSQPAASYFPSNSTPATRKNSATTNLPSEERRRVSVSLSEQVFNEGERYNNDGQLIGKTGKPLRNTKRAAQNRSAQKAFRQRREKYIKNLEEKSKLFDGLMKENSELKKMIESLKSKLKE
Test: PBM E-score (8-mer binding enrichment) (E-score (-0.5 to 0.5)); higher = stronger / more preferred TF binding
Details: protein concentration: 100 nM; construct: GST-full length
Over roughly 33,000 sequences, “E-score (-0.5 to 0.5)” has its median near -0.0059; the highest 2% begin near 0.26. The list comes from a sample in which the highest values are over-represented; it also holds close analogues and randomly drawn sequences.

>  <ordered residues>
AATACGTA

>  <PBM E-score>
0.313

$$$$
>  <ordered residues>
GTTATGAA

>  <PBM E-score>
0.159

$$$$
>  <ordered residues>
ACGATTAT

>  <PBM E-score>
0.274

$$$$
>  <ordered residues>
AACTCAAT

>  <PBM E-score>
0.165

$$$$
>  <ordered residues>
CATATGTA

>  <PBM E-score>
0.172

$$$$
>  <ordered residues>
CCCTGGTA

>  <PBM E-score>
-0.196

$$$$
>  <ordered residues>
CTTACATA

>  <PBM E-score>
0.358

$$$$
>  <ordered residues>
GTTACAAA

>  <PBM E-score>
0.184

$$$$
>  <ordered residues>
ACAGACAC

>  <PBM E-score>
-0.0499

$$$$
>  <ordered residues>
CGATCACG

>  <PBM E-score>
0.117

$$$$
>  <ordered residues>
ATTACATC

>  <PBM E-score>
0.31

$$$$
>  <ordered residues>
AGTGCTTA

>  <PBM E-score>
0.199

$$$$
>  <ordered residues>
AAGTATAA

>  <PBM E-score>
0.216

$$$$
